assayed-target: human kinase Mps-1 (Homo sapiens (Human))
Sequence (P33981 whole entry): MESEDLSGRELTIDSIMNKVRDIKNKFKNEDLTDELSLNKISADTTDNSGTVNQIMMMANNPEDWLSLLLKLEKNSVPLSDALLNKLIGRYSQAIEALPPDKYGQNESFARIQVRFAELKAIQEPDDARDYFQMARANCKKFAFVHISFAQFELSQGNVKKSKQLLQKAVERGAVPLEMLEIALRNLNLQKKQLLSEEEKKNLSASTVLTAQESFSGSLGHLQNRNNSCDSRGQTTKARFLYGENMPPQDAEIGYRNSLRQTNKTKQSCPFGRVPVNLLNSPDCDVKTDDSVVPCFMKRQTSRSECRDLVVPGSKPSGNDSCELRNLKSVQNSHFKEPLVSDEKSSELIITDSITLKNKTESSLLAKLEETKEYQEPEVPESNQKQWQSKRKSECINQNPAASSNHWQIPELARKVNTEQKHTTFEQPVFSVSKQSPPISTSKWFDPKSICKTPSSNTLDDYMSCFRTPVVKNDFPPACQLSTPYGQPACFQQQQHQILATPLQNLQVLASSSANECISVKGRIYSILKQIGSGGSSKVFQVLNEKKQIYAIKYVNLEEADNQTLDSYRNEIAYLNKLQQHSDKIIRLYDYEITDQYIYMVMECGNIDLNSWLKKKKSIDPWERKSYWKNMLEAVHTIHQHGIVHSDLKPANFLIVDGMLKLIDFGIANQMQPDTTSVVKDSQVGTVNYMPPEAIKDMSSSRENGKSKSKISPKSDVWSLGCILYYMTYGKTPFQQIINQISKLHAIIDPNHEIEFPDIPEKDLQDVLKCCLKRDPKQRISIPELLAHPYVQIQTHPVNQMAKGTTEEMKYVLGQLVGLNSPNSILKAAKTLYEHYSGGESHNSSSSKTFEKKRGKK
assay-explanation: Mps-1 kinase assay (TR-FRET, 10 μM ATP)
applied-conditions: N-terminally GST-tagged human full length recombinant Mps-1, read-out: Mps-1 Inhibition, IC50 (Assay with 10 μM ATP)
pIC50: −log10 of the molar value.
Label scheme for pIC50: lower than 8 is 0 (no), 8 and above is 1 (yes).

INSERT INTO assay_data (compound, assayed_target, label) VALUES
  ('COc1cc(Nc2nc3ccc(N4CCN(C(=O)NCc5ccc(F)cc5)CC4)cn3n2)ccc1C(=O)N1CCOCC1 [Example 01.11]', 'human kinase Mps-1 (Homo sapiens (Human))', '0 (no)'),
  ('CCNC(=O)c1ccc(Nc2nc3ccc(N4CCN(C(=O)NCc5ccc(F)cc5)CC4)cn3n2)c(OCC)c1 [Example 01.01]', 'human kinase Mps-1 (Homo sapiens (Human))', '1 (yes)'),
  ('CC(C)(C)NC(=O)c1ccc(Nc2nc3ccc(N4CCN(C(=O)NCc5ccc(F)cc5)CC4)cn3n2)c(OCC(F)(F)F)c1 [Example 01.02]', 'human kinase Mps-1 (Homo sapiens (Human))', '1 (yes)'),
  ('COc1ncccc1Nc1nc2ccc(N3CCN(C(=O)NCc4ccc(F)cc4)CC3)cn2n1 [Example 01.12]', 'human kinase Mps-1 (Homo sapiens (Human))', '0 (no)'),
  ('O=C(NCc1ccc(F)cc1)NC1CCN(c2ccc3nc(Nc4ccc(C(=O)N5CCOCC5)cc4OCC(F)(F)F)nn3c2)C1 (stereo not shown) [Example 05.01]', 'human kinase Mps-1 (Homo sapiens (Human))', '0 (no)'),
  ('CCN(CC)C(=O)c1ccc(Nc2nc3ccc(N4CCN(C(=O)NCc5ccc(F)cc5)CC4)cn3n2)c(OCCOC)c1 [Example 01.08]', 'human kinase Mps-1 (Homo sapiens (Human))', '0 (no)');

* * *

assayed-target: human kinase Mps-1 (Homo sapiens (Human))
assay-explanation: Mps-1 kinase assay (TR-FRET, 10 μM ATP)
applied-conditions: N-terminally GST-tagged human full length recombinant Mps-1, read-out: Mps-1 Inhibition, IC50 (Assay with 10 μM ATP)
Cut-off 8 nM on IC50: below means satisfied, at or above means not satisfied.

INSERT INTO measurements (structure_smiles_string, label) VALUES
  ('CCNC(=O)c1ccc(Nc2nc3ccc(N4CCC(NC(=O)Cc5ccc(F)cc5)CC4)cn3n2)c(OCC)c1', 'satisfied'),
  ('COc1cc(N2CCN(C)CC2)ccc1Nc1nc2ccc(N3CCN(C(=O)NCc4ccc(F)cc4)CC3)cn2n1', 'not satisfied'),
  ('CCOc1cc(C(=O)N2CCOCC2)ccc1Nc1nc2ccc(N3CCC(C(=O)NCc4ccc(F)cc4)CC3)cn2n1', 'not satisfied'),
  ('CCOc1ncccc1Nc1nc2ccc(N3CCC(NC(=O)Cc4ccc(F)cc4)CC3)cn2n1', 'not satisfied'),
  ('CCNC(=O)c1ccc(Nc2nc3ccc(N4CCC(C(=O)NCC5CC5)CC4)cn3n2)c(OCC)c1', 'not satisfied');

* * *

assayed-target: human kinase Mps-1 (Homo sapiens (Human))
assay-explanation: Mps-1 kinase assay (TR-FRET, 10 μM ATP)
applied-conditions: N-terminally GST-tagged human full length recombinant Mps-1, read-out: Mps-1 Inhibition, IC50 (Assay with 10 μM ATP)
Counter-ions that a name gives are not always drawn.
parameter: IC50 (nM)

INSERT INTO measurements (molecule, result_units, recorded_result) VALUES
  ('CCOc1cc(C(=O)N2CCOCC2)ccc1Nc1nc2ccc(N3CCC(C(=O)NCC4CC4)CC3)cn2n1 [Example 03.02]', 'nM', 67.8),
  ('CCCOc1cc(C(=O)N(CC)CC)ccc1Nc1nc2ccc(N3CCN(C(=O)NCc4ccc(F)cc4)CC3)cn2n1 [Example 01.05]', 'nM', 9.7),
  ('CCOc1cc(C(=O)N2CCOCC2)ccc1Nc1nc2ccc(N3CCN(C(=O)NCc4ccc(F)cc4)CC3)cn2n1 [Example 01.04]', 'nM', 2.6),
  ('CCN(CC)C(=O)c1ccc(Nc2nc3ccc(N4CCN(C(=O)NCc5ccc(F)cc5)CC4)cn3n2)c(OCC(F)(F)F)c1 [Example 01.09, trifluoroacetate]', 'nM', 1.7),
  ('CCN(CC)C(=O)c1ccc(Nc2nc3ccc(N4CCN(C(=O)NCc5ccc(F)cc5)CC4)cn3n2)c(OCC2CC2)c1 [Example 01.07]', 'nM', 20.6),
  ('CCOc1ncccc1Nc1nc2ccc(N3CCN(C(=O)NCc4ccc(F)cc4)CC3)cn2n1 [Example 01.13]', 'nM', 8.9),
  ('CCN(CC)C(=O)c1ccc(Nc2nc3ccc(N4CCN(C(=O)NCc5ccc(F)cc5)CC4)cn3n2)c(OCC(C)C)c1 [Example 01.06, trifluoroacetate]', 'nM', 28.5);
